Multiple publications report Ki for Protein kinase C alpha type (Homo sapiens); what follows is a combined list.

> print(dat)
                                   compound         result
1  OC1(C2CN(c3ccc(F)c(-c4n[nH]c5ncccc45)n3)CCN2)CCCC1 (stereo not shown)      > 1.25 µM
2  Nc1ncccc1C(=O)c1nc(NCC2CCCN2)ccc1C(F)(F)F (stereo not shown)  0.5 to 2.8 µM
3  Clc1ccc(CNc2ncc3nc(-c4c(Cl)cccc4Cl)n(CCC4CCNCC4)c3n2)cc1         > 1 µM

# context switch: different compound, same Ki
[in] Any idea what Ki came out for NCC1CN(c2cc(C(F)(F)F)cc(-c3n[nH]c4ncccc34)n2)C1 on Protein kinase C alpha type (Homo sapiens)?
[out] > 1.25 µM
